System: RPMI-8226
protocol.description: NCI tumour cell line growth inhibition, 48 h
The source made the active and inactive calls. No stated cut-off is given here; in the data, active = GI50 up to about 1.1 µM and inactive = higher.
Classes used: class 1 (active), class 0 (inactive)

compound=O=C(c1ccc(Cl)cc1)N(C(=S)N1CCN(c2ccccc2)CC1)C1CCCCC1 class_assignment="class 0"
compound=COc1ccc(C(=C(C#N)C#N)c2ccc(OC)cc2)cc1 class_assignment="class 0"
compound="CC(=O)OC1CC2CCN3C(=O)c4cc5c(cc4[C@H](C1OC(C)=O)C23)OCO5 (stereo partly specified)" class_assignment="class 0"
compound=CCOC(=O)C1=C(N2CCCC2)NC(=O)CC1=O class_assignment="class 0"
compound=Nc1ccc2ccc(N3CCNCC3)nc2n1 class_assignment="class 0"
compound=CN(C)CCNC(=O)c1cc2ccccc2c2nc3ccccc3nc12 class_assignment="class 1"
compound="CN1CCC23c4c5ccc(Oc6nnnn6-c6ccccc6)c4OC2c2[nH]c4ccccc4c2CC3(O)C1C5 (stereo unspecified)" class_assignment="class 0"
compound=C[N+](C)(C)CCc1ccccc1 class_assignment="class 0"
compound=COC(=O)/C=C\C(C#N)(C#N)/N=C/c1sccc1C class_assignment="class 0"
compound=N#C/C(C(=S)Nc1ccccc1)=C(/N)N1CCCC1 class_assignment="class 0"
compound=BrCc1ccc2ccc3ccc(CBr)nc3c2n1 class_assignment="class 1"
compound=C=CCN1C(=O)CNC1=S class_assignment="class 0"
compound=CC(C)(C)C(=O)C(Cc1ccccc1)C(=O)C(C)(C)C class_assignment="class 0"
compound=CC(=O)N(C(C)=O)n1c(Cc2ccc(Cl)cc2)nn(C(C)=O)c1=O class_assignment="class 0"
compound=CC(C)NC(=O)OCc1c(COC(=O)NC(C)C)c(-c2ccc[n+](COC(=O)C3CCCCC3)c2)n2c1CCC2 class_assignment="class 0"
compound=O=[N+]([O-])c1cccc2nc3ccccc3c(NCCCCCNc3c4ccccc4nc4cccc([N+](=O)[O-])c34)c12 class_assignment="class 1"
compound="O=C(CC1(O)C(=O)Nc2c(Cl)ccc(Cl)c21)c1ccco1 (stereo unspecified)" class_assignment="class 0"
compound=O=c1[nH]c2cc([N+](=O)[O-])c(Nc3c4ccccc4nc4ccccc34)c([N+](=O)[O-])c2[nH]1 class_assignment="class 0"
compound="CCCCCCCC(=O)NC(C)(C)C(=O)NCC(=O)NC(CC(C)C)C(=O)NC(C)(C)C(=O)NCC(=O)NCC(=O)NC(CC(C)C)C(=O)NC(C)(C)C(=O)NCC(=O)NC(C(=O)NC(CO)CC(C)C)C(C)CC (stereo unspecified)" class_assignment="class 1"
compound=Cc1n[nH]c(CC#N)n1 class_assignment="class 0"
compound=CCO[C@@]1(COCc2ccccc2)OC(=O)C[C@@H]1N1C(=O)OC[C@@H]1c1ccccc1 class_assignment="class 0"

* * *

System: Hs-578T
protocol.description: NCI tumour cell line growth inhibition, 48 h
Calls of active or inactive are those of the source. No stated cut-off is given here; in the data, active = GI50 up to about 1.1 µM and inactive = higher.
Listed here: items and their measured GI50.
readout.label: GI50

compound="CC1(C2(C)OC(=O)c3ccccc32)OC(=O)c2ccccc21 (configuration not stated)" measured_on=Hs-578T result_value="72.6 µM (inactive)"
compound=CC(=O)c1csc2c1C(=O)c1scc(C(C)=O)c1C2=O measured_on=Hs-578T result_value="2.74 µM (inactive)"
compound=c1ccc(C/C(=N\Nc2nc3ccccc3[nH]2)c2ccccn2)cc1 measured_on=Hs-578T result_value="0.879 µM (active)"
compound=CC(C)C(OC(=O)c1ccc(NCC2=CC(=O)C=CC2=O)cc1)C(C)C measured_on=Hs-578T result_value="3.68 µM (inactive)"
compound=COC(=O)/C=C\C(C#N)(C#N)/N=C/c1sccc1C measured_on=Hs-578T result_value="7.78 µM (inactive)"
compound="Cc1cc2c(c(/C=N/c3ccc(N(C)C)cc3)c1)OC1(C=C2)Oc2ccccc2C(=O)N1C (configuration not stated)" measured_on=Hs-578T result_value="21.5 µM (inactive)"
compound=Cc1ccc(-c2sc(-c3ccc(C)cc3)c3c2C2CCC3C2)cc1 measured_on=Hs-578T result_value="> 50 µM (inactive)"

* * *

Tested on: PC-3
protocol.description: NCI tumour cell line growth inhibition, 48 h
Calls of active or inactive are those of the source. Rule as the data show it: active = GI50 up to about 1.1 µM and inactive = higher.
Possible outcomes: true (1) for active, false (0) for inactive

molecule="CC(C)(C)NCCC(O)c1cc(C(F)(F)F)nc2c(C(F)(F)F)cccc12 (stereo not given)" class_assignment="false (0)"
molecule=O=Cc1c2c(cc3c1CC1(C3)Cc3cc4c(c(C=O)c3C1)CCC4)CCC2 class_assignment="false (0)"
molecule=Cc1ccc(-c2sc(-c3ccc(C)cc3)c3c2C2CCC3C2)cc1 class_assignment="false (0)"
molecule="Cc1ccc(OCC2OC(n3cnc4c(Cl)nc(N)nc43)CC2Oc2ccc(C)cc2)cc1 (stereo not given)" class_assignment="false (0)"
molecule="COc1cc2cc(C(=O)N3CC(CCl)c4ccc(NO)cc43)[nH]c2c(OC)c1OC (stereo not given)" class_assignment="true (1)"
molecule=CCOC(=O)C1=C(N2CCCC2)NC(=O)CC1=O class_assignment="false (0)"
molecule=COC1=CC(=O)C[C@@H](C)[C@]12Oc1c(Cl)c(OC)cc(OC)c1C2=O class_assignment="false (0)"
molecule=C(CCCCc1nnc(N2CCCCC2)o1)CCCc1nnc(N2CCCCC2)o1 class_assignment="false (0)"
molecule=COc1ccc(O)c(/C=N\Nc2ccccc2)c1 class_assignment="false (0)"
molecule=CN(C)Cc1cc(C(F)(F)F)ccc1C(O)(c1ccccc1)c1ccccc1 class_assignment="false (0)"

* * *

Test system: KM12
protocol.description: NCI tumour cell line growth inhibition, 48 h
Activity calls are given as the source filed them. Cut-off read from the data, not from the text of the source: active = GI50 up to about 1.1 µM and inactive = higher.
readout.label: GI50

molecule=O=C1[C@@H]2C3c4ccccc4C([C@@H]2C(=O)N1c1ccccc1)S3(=O)=O result_value="> 100 µM (inactive)"
molecule="CC/C=C\\C/C=C\\C/C=C\\CCCCCCCC(=O)OC [METHYL LINOLENATE]" result_value="> 100 µM (inactive)"
molecule=O=C(N/C(=C\c1ccc(Cl)cc1)c1nc2ccccc2[nH]1)c1ccccc1 result_value="16.8 µM (inactive)"
molecule=Nc1ccccc1C(=O)N/N=C1\C(=O)Nc2ccccc21 result_value="88.5 µM (inactive)"
molecule=COc1c(Cl)c(Cl)c(OC)c2c1C(=O)C=CC2=O result_value="17.5 µM (inactive)"
molecule=COc1ccc(-c2coc3cc(O)ccc3c2=O)cc1 result_value="> 100 µM (inactive)"
molecule=CC1=C(Nc2c(C)cc(O)cc2O)C(=O)C=c2oc3c(c21)C(C)=C(Nc1c(C)cc(O)cc1O)C(=O)C=3 result_value="28.9 µM (inactive)"
molecule=FC(F)(F)c1ccc2nc(Sc3ccccn3)cnc2c1 result_value="88.7 µM (inactive)"
molecule=Nc1ccc2ccc(N3CCNCC3)nc2n1 result_value="48.2 µM (inactive)"
molecule=CC(C)c1ccc(O)c(Cc2cc(C(C)C)cc(Cc3cc(C(C)C)ccc3O)c2O)c1 result_value="1.97 µM (inactive)"
molecule=COCCOC(=O)NCn1cc(-c2ccccc2)nn1 result_value="> 100 µM (inactive)"
molecule=N=C(N)N/N=C/c1c(-c2cc([N+](=O)[O-])c(Cl)cc2Cl)nc2n1CCS2 result_value="4.83 µM (inactive)"
molecule="CC1C(=O)N=C2C(=CN(Cc3ccccc3)c3ccccc32)C(=O)N1C (configuration not stated)" result_value="> 100 µM (inactive)"
molecule=CCCC(=O)Oc1ccc(/C=N/NC(N)=S)nc1 result_value="> 100 µM (inactive)"
molecule="N#CC(C/C=C/c1ccccc1)NNC(=O)c1c(Cl)c(Cl)c(Cl)c(Cl)c1-c1nc2cc(C(=O)c3ccccc3)ccc2[nH]1 (configuration not stated)" result_value="23.4 µM (inactive)"
molecule=CN(C(=O)Cc1cc(Cl)c(Cl)cc1NC(=O)CN)[C@H]1CCCC[C@@H]1N1CCCC1 result_value="47.4 µM (inactive)"
molecule=O=C(N/C=C1\C(=O)Oc2ccccc2C1=O)Nc1ccccc1 result_value="64 µM (inactive)"
molecule=Cc1c(C(=O)O)sc2nc[nH]c(=O)c12 result_value="> 100 µM (inactive)"
molecule="CC(CSc1nc2c(c(=N)n1-c1ccccc1)c(=S)n(-c1ccccc1)c(=S)n2-c1ccccc1)CN(C)C (configuration not stated)" result_value="2.25 µM (inactive)"
molecule=O=[N+]([O-])c1cc2oc(CSc3ccccc3)nc2cc1Cl result_value="32 µM (inactive)"
molecule=O=c1c2cc(Cl)ccc2sc2cccc(Cl)c12 result_value="> 100 µM (inactive)"
molecule=CCOc1ccc2c(C)cc(=O)oc2c1 result_value="> 100 µM (inactive)"

* * *

GI50 listing for selected compounds.
System: NCI-H23
protocol.description: NCI tumour cell line growth inhibition, 48 h
Activity calls are given as the source filed them. No stated cut-off is given here; in the data, active = GI50 up to about 1.1 µM and inactive = higher.
readout.label: GI50

compound=CCOC(=O)c1ccc(/N=C/c2ccc(N(CCC#N)S(=O)(=O)c3ccccc3)cc2C)cc1 measured_on=NCI-H23 readout_label=GI50 result_value="> 100 µM (inactive)"
compound="CCN(CC)CCC(=O)N1CCc2c([nH]c3ccccc23)C1c1cccnc1 (stereo not given)" measured_on=NCI-H23 readout_label=GI50 result_value="> 100 µM (inactive)"
compound=C[N+](C)(CCNc1ccc(NCC[N+](C)(C)Cc2ccc([N+](=O)[O-])cc2)c2c1C(=O)c1ccccc1C2=O)Cc1ccc([N+](=O)[O-])cc1 measured_on=NCI-H23 readout_label=GI50 result_value="> 100 µM (inactive)"
compound="CC1CC(N)=Nc2ccccc2N1Cc1ccccc1 (stereo not given)" measured_on=NCI-H23 readout_label=GI50 result_value="16.3 µM (inactive)"
compound="COC(=O)C(F)C(Br)C(=O)OC (stereo not given)" measured_on=NCI-H23 readout_label=GI50 result_value="6.03 µM (inactive)"

Origin of values: ChEMBL document CHEMBL1201862
